Test system: 922993-354-T-J3-PDC complex spheroids, viability, % test/control;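 note: spheroids exposed to the agents for 7 days before readout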
protocol: Anticancer human tumor 922993-354-T-J3-PDC patient-derived endometrial carcinoma cell line growth inhibition [CLK]
measurement context: second compound 3.16 µM; first compound 0.0316 µM; stronger effect = lower value
Quick list: viability, T/C per entry.

{"molecule": "CCc1c2c(nc3ccc(O)cc13)-c1cc3c(c(=O)n1C2)COC(=O)[C@]3(O)CC + CN1CCN(c2cc(C(=O)Nc3cc4cc(-c5cnn(C)c5)ccc4cn3)ccn2)CC1", "subject of test": "922993-354-T-J3-PDC complex spheroids, viability, % test/control", "viability, T/C": "0.99%"}
{"molecule": "Cn1ncnc1[C@H]1c2n[nH]c(=O)c3cc(F)cc(c23)N[C@@H]1c1ccc(F)cc1 + CNC(=O)c1ccc(Nc2nc(OC3CCCC3)c3c(-c4ccc5nc(C)oc5c4)c[nH]c3n2)c(OC)c1", "subject of test": "922993-354-T-J3-PDC complex spheroids, viability, % test/control", "viability, T/C": "28%"}
{"molecule": "O=C(c1cc(Cc2n[nH]c(=O)c3ccccc23)ccc1F)N1CCN(C(=O)C2CC2)CC1 + CN1CCN(c2cc(C(=O)Nc3cc4cc(-c5cnn(C)c5)ccc4cn3)ccn2)CC1", "subject of test": "922993-354-T-J3-PDC complex spheroids, viability, % test/control", "viability, T/C": "0.08%"}
